Target: calcium-impermeable AMPA receptors (CI-AMPARs) (Rattus norvegicus, UniProt P19490+P19491, Q607R)
Sequence (P19491 22-883 Q607R): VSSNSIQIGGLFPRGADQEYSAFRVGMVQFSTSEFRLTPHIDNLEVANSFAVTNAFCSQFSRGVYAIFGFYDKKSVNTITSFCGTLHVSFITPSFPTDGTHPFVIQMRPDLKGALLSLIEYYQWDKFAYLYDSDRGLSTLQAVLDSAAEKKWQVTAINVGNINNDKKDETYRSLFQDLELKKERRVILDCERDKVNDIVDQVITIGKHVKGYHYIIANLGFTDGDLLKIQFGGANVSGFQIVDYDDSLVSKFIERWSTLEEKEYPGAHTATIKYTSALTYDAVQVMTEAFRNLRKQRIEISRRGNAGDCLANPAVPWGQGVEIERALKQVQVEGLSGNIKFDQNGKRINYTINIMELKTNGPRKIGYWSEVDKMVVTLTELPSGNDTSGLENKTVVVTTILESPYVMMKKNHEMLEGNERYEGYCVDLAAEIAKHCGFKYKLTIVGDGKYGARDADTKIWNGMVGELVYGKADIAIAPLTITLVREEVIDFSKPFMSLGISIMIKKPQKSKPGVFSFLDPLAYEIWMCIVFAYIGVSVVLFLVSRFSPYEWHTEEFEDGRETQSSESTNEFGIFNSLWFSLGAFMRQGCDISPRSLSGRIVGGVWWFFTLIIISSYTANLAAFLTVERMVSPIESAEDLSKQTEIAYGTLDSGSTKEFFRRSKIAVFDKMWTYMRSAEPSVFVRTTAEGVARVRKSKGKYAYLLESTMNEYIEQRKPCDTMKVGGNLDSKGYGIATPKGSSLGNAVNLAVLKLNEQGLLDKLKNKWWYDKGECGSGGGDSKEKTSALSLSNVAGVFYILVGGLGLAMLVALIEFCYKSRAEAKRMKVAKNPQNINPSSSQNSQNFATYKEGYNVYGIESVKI
Sequence (P19490 19-907): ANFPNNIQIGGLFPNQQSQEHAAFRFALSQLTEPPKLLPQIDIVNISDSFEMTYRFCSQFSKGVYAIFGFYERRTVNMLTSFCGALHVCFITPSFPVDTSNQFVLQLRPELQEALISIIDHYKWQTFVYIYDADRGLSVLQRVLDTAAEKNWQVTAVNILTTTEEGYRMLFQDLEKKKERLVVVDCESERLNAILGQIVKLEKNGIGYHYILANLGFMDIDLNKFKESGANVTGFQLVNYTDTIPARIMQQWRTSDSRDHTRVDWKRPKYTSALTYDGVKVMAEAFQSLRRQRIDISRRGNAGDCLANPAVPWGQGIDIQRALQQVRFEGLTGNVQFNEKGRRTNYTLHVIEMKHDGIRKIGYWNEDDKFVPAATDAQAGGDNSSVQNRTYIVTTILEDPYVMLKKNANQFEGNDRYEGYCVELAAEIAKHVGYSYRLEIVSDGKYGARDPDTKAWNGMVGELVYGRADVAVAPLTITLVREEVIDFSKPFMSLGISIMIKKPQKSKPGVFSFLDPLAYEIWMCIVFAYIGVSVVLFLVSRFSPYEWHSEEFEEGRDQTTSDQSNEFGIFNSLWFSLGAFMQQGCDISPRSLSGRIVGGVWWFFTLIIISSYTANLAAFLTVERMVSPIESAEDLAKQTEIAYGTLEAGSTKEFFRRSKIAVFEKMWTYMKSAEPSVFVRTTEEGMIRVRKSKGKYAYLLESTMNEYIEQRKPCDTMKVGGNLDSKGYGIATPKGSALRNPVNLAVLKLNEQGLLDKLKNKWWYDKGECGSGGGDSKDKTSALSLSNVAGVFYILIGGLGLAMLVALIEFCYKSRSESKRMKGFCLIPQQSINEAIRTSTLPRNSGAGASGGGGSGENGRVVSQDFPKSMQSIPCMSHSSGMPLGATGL
Assay: Whole-cell patch clamp, kainate-induced currents in hippocampal CA1 pyramidal neurons
Format: cell-based
Conditions: fixed δb values obtained from the CP-AMPARs data
Label True when δb CI-AMPAR is at or above 0.7; otherwise label False.

Lookup: Determine whether this molecule has δb CI-AMPAR no lower than 0.7: N=C(N)c1ccc2cc(OC(=O)c3ccc(NC4=NCCN4)cc3)ccc2c1 [Sepimostat]
Found: True

Lookup: Check the entry N=C(N)c1ccc(-c2cc3ccc(C(=N)N)cc3[nH]2)cc1 [DAPI, 4′,6-diamidino-2-phenylindole] : does δb CI-AMPAR equal or exceed 0.7?
Found: False

Lookup: Exam item: decide whether the reported δb CI-AMPAR for N=C(N)c1ccc2cc(OC(=O)c3ccc(N=C(N)N)cc3)ccc2c1 [Nafamostat] is at least 0.7.
Found: True

Lookup: Has N=C(N)c1ccc(/N=N/Nc2ccc(C(=N)N)cc2)cc1 [Diminazene] a recorded δb CI-AMPAR greater than or equal to 0.7?
Found: False

Lookup: Is δb CI-AMPAR at least 0.7? Consider N=C(N)c1ccc(OCCCCCOc2ccc(C(=N)N)cc2)cc1 [Pentamidine]
Found: False
